- measured on: Human recombinant PDE2A (hPDE2A) (Homo sapiens, UniProt O00408)
- Construct: made in house; host or cells: Sf9 insect cells (baculovirus)
- Sequence (O00408 whole entry): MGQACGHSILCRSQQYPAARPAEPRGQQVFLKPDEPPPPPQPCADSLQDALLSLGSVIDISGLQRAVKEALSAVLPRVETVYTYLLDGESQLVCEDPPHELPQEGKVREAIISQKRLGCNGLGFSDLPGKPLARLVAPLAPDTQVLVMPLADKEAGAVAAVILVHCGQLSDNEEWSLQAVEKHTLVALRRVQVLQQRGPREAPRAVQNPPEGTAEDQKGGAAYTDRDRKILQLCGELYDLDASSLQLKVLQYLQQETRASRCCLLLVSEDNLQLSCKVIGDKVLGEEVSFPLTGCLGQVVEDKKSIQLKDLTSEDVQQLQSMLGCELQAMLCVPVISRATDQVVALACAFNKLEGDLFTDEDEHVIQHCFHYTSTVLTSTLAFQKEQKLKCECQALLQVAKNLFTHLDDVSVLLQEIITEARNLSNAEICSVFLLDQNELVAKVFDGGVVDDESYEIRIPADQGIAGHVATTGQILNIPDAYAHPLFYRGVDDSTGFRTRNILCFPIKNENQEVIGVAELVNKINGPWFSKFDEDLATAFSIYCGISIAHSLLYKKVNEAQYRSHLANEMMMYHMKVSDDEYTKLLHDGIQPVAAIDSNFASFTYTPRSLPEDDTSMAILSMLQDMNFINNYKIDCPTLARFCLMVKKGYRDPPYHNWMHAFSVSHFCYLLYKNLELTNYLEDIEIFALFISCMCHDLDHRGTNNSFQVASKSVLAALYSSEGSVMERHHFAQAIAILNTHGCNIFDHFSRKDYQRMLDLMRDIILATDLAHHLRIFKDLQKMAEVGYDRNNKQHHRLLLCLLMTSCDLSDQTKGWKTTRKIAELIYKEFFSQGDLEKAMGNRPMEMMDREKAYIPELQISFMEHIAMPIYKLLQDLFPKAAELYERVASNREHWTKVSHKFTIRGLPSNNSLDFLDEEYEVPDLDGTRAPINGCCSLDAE
- method: In vitro assay PDE2A (SPA, 3H-cGMP)
- Type: biochemical
- measurement conditions: read-out: pIC50 PDE2 (converted)
endpoint: IC50 (nM)

a = Cc1nc2ccc(CNC3CCC3)cc2n2c(-c3cncc(OCC4CC4)c3)nnc12
b = Cc1nc2ccc(C(=O)NCCN3CCCC3)cc2n2c(-c3ccccc3Cl)nnc12
Lab log: flag the item ( a or b ) with the smaller IC50 figure. Return value: the label identifying the chosen record.
b

a = CCNC(c1ccc2nc(C)c3nnc(-c4ccccc4Cl)n3c2c1)C(F)(F)F (stereo not shown)
b = Cc1ccncc1-c1nnc2c(C)nc3ccc(C(=O)C4CC4)cc3n12
c = Cc1nc2ccc(CN3CCC(F)CC3)cc2n2c(-c3cncc(OCC4CC4)c3)nnc12
With regard to IC50, arrange the entries in ascending order, please. Field: ranking. Enter the labels in the order requested.
a, b, c

a = CCNC(=O)c1ccc2nc(C)c3nnc(-c4ccc(C)nc4)n3c2c1
b = Cc1nc2ccc(OC(F)(F)F)cc2n2c(-c3ccccc3Cl)nnc12
Lab log: flag the item ( a or b ) with the smaller IC50 figure. Return value: the label identifying the chosen record.
b

----------
- measured on: Human recombinant PDE2A (hPDE2A) (Homo sapiens)
- Construct: made in house; host or cells: Sf9 insect cells (baculovirus)
- method: In vitro assay PDE2A (SPA, 3H-cGMP)
- Type: biochemical
- measurement conditions: read-out: pIC50 PDE2 (converted)
endpoint: IC50 (nM)

>>> result_number("Cc1nc2ccc(OCCN3CCOCC3)cc2n2c(-c3ccccc3Cl)nnc12")
22.9
>>> result_number("Cc1nc2ccc(C(=O)NCc3ccccc3)cc2n2c(-c3ccccc3Cl)nnc12")
0.372
>>> result_number("CCCOc1ccc(Cl)c(-c2nnc3c(C)nc4ccc(CN5CCC(O)CC5)cc4n23)c1")
28.8
>>> result_number("Cc1ncccc1-c1nnc2c(C)nc3ccc(OC(F)(F)F)cc3n12")
97.7
>>> result_number("Cc1nc2ccc(C(=O)NCc3ccccn3)cc2n2c(-c3cc(Cl)ccc3Cl)nnc12")
1.62

I = CCCCOc1cncc(-c2nnc3c(C)nc4ccc(CNC5CCC5)cc4n23)c1
II = Cc1nc2ccc(CNc3cccnc3)cc2n2c(-c3cc(OC(C)C)ccc3Cl)nnc12
Lab log: flag the item ( I or II ) with the smaller IC50 figure. Return value: the label identifying the chosen record.
II
